# System: CCRF-CEM leukemia
# experiment-summary: NCI tumour cell line growth inhibition, 48 h
Exercise: for every item that follows, state its recorded TGI.

What value of measured TGI is listed for CC1(C)CCC2=C(O1)c1ccccc1C(=O)C2=O ?
> 100 µM

Which TGI value is on record for COc1ccc(C(=O)c2cc(OC)c(OC)c(OC)c2)cc1/C=C/C(=O)c1ccc(OC)c(OC)c1 ?
13.3 µM

What measured TGI goes with COC(=O)C(C(=O)C(=O)Nc1nc(=S)[nH][nH]1)c1csc(-n2nc(-c3ccccc3)cc2-c2ccccc2)n1 (stereo not given) ?
> 100 µM

What does the data say about its TGI? Entry: COC(CC1(/C=C/O[Si](C(C)C)(C(C)C)C(C)C)C(=O)N(C)c2ccccc21)OC (stereo not given)
> 100 µM

// query TGI value for entry COC(=O)[C@@H]1CN(C(C)=O)C(=O)N1C(=O)OCc1ccccc1
> 100 µM

Fill in the blank: the reported TGI of COc1cc(C2C(C#N)=C(N)OC3=C2CCS(=O)(=O)c2ccc(C)cc23)cc(OC)c1OC (stereo not given) is ____.
> 100 µM

Which TGI is listed for NC(N)=N/N=C/c1c(-c2cc(Cl)sc2Cl)nc2sccn12 ?
1.68 µM

Item under review: COc1ccc2cc(C(=O)O)ccc2c1OC . Reported TGI?
> 100 µM

Consider the molecule shown here: Cc1ncc2c(=O)c3c(oc2n1)c1ccccc1n3Cc1ccccc1 What is its recorded TGI?
> 100 µM

GET /values?readout=TGI&item= CC(=O)Nc1cc2c3c(c1)CCCN3CCC2
> 100 µM
